- System: SK-OV-3 ovarian
- assayInfo: NCI tumour cell line growth inhibition, 48 h
recordedEndpoint: log10(TGI) (log10 of the value in µM)
The figures below represent log10 of TGI, where TGI is stated in µM.

For orientation, consider the following solved cases.
compound | log10(TGI)
COc1cc2c(cc1[N+](=O)[O-])C(=O)C(Br)(Br)CCC2 | 0.97
COc1ccc(-c2cc(=O)c3cc(O)ccc3o2)c(OC)c1OC | 2.00
CCCCCCc1cc2cc(C(=O)Nc3cccc(F)c3)c(=N)oc2cc1O | 1.12
CC[C@@]1(O)C(=O)OCc2c1cc1n(c2=O)Cc2c-1nc1cc(F)c(C)c3c1c2[C@@H](NC(=O)CO)CC3 | 0.70
CC(C)C(=O)/C=C/c1c(Cl)cccc1Cl | 0.97
Nc1cc(N)c2nc(NCCc3ccc(Cl)c(Cl)c3)cnc2c1 | 1.51

Return reported log10(TGI) values for all items listed beneath this line.
1. CCN(CC)CC(O)c1cc(-c2ccc(Cl)cc2)nc2c(C)c(Cl)ccc12 (stereo not given)
2. CN(C)CC(C)(C)CN1c2ccccc2Sc2ccccc21
3. CC1(C)[C@H]2Cc3cc4nc5ccccn5c4cc3[C@@H]1C2

Solution:
1. 0.52
2. 1.41
3. 1.56

---

Provide the reported TGI of each item.
- Test system: SK-MEL-2 melanoma
- assayInfo: NCI tumour cell line growth inhibition, 48 h
Give bare numbers, in µM.

molecule | measurement
O=C(Nc1cccc(-n2cc(-c3ccncc3)c(-c3ccc(Cl)c(O)c3)n2)c1)Nc1ccc(Cl)c(Cl)c1 | 2.64
CC(=O)ON=C1C=CC(=C(C#N)c2ccccc2)C=C1 | 15.6
O=C1c2ccc3c4c(ccc(c24)C(=O)N1CCNCc1ccccc1)C(=O)N(CCNCc1ccccc1)C3=O | 5.81

Exercise: Any idea what TGI came out for c1ccc(CC(Nc2cccnc2)c2ccccc2)cc1 (stereo unspecified) on SK-MEL-2 melanoma?
Solution: 36

---

- Tested on: NCI-H226 lung
- assayInfo: NCI tumour cell line growth inhibition, 48 h; in the data active = GI50 below about 0.43 µM; inactive = the rest
Hi! Could you answer with just one of these? 1 = active, 0 = inactive

Exercise: Kindly provide the recorded test outcome for the following compound: CC(=O)ON=C1C=CC(=C(C#N)c2ccccc2)C=C1
Solution: 0

Exercise: Kindly provide the recorded test outcome for the following compound: COc1cc(C)[nH]c(=O)c1CNC(=O)c1c(C)n([C@H](C)C2CCN(CC(F)(F)F)CC2)c2ccccc12
Solution: 0

Exercise: Kindly provide the recorded test outcome for the following compound: CC[C@@H](C)/C=C(C)/C=C/C(=O)c1c(O)c(-c2ccc(O)cc2)cn(OC2CC(=O)CCC(C)OC(=O)CC2O)c1=O (stereo not given in full)
Solution: 1

Exercise: Kindly provide the recorded test outcome for the following compound: COC(=O)c1c2c(c(C)[n+]([O-])c1C)C(=O)C(NCc1ccc(O)cc1)=CC2=O
Solution: 0

Exercise: Kindly provide the recorded test outcome for the following compound: CCC(C)C1NC(=O)C(NC(=O)C(CC(C)C)N(C)C(=O)[C@@H]2CC(O)CN2C(=O)[C@H](C)O)C(C)OC(=O)[C@H](Cc2ccc(OC)cc2)N(C)C(=O)[C@@H]2CCCN2C(=O)[C@H](CC(C)C)NC(=O)C(C)C(=O)[C@H](C(C)C)OC(=O)CC1O (stereo not given in full)
Solution: 1

---

- System: 786-0 renal
- assayInfo: NCI tumour cell line growth inhibition, 48 h
# binarize TGI: threshold 30 µM inclusive, high side true (1), low side false (0)

compound | className
[O-][N+]1=C2CCC/C(=N/O)C2(O)C2CCCCC21N1CCOCC1 (configuration not stated) | true (1)
CC/C=C\C=C/C(=O)N/C=C/CCC | true (1)

Attention now turns to another entry.
Exercise: Check if TGI >= 30 µM (inclusive). Item: O=C(NN1C(=O)CSC1c1c(Cl)cccc1Cl)C(O)c1ccccc1 (configuration not stated)
Solution: true (1)

---

- Test system: K-562 leukemia
- assayInfo: NCI tumour cell line growth inhibition, 48 h
recordedEndpoint: TGI

For orientation, consider the following solved cases.
compound | measurement
Fc1ccc(N=C2C=CC(=Nc3ccc(F)cc3)c3ccccc32)cc1 | > 100 µM
CN(C)C1CN(C(=O)c2cc(-c3ccc4ncnc(N5CCc6cc(F)c(Cl)cc65)c4c3)cnc2N)C1 | > 100 µM
N#CCCN(c1ccc(C=O)cc1)S(=O)(=O)c1ccccc1 | > 100 µM
C=CCOCn1cnc2c(=O)[nH]c(N)nc21 | > 100 µM
O=C(OCC(OC(=O)c1ccccc1)C1CC(C2(O)CCCCC2)C(=O)O1)c1ccccc1 (stereo not given) | > 25 µM
COc1ccc(/C=C/C(=O)CCN2CCN(CCC(=O)/C=C/c3ccc(OC)cc3)CC2)cc1 | 37.9 µM
COC(=O)C(C(=O)C(=O)Nc1ccccc1C)c1nc2ccc([N+](=O)[O-])cc2[nH]c1=O (stereo not given) | > 100 µM
Nc1ncnc2c1ccn2-c1cccc(NC(=O)c2ccc(N3CCOCC3)c(C(F)(F)F)c2)c1 | 16 µM

Return reported TGI values for all items listed beneath this line.
1. O=C(O)c1ccc(/C=N/N=C2c3ccccc3-c3ccccc32)cc1
2. CC1=CC[C@@H](C(C)(C)O)C[C@@H]1O

Solution:
["> 100 µM", "> 5000 µM"]

---

Provide the reported TGI of each item.
- Test system: KM12 colon
- assayInfo: NCI tumour cell line growth inhibition, 48 h

For orientation, consider the following solved cases.
molecule | TGI
Cc1cc(N=Cc2c(CO)cnc(C)c2O)c(N=Cc2c(CO)cnc(C)c2O)cc1C | > 100 µM
COC(=O)C1=CC(=O)[C@@H]2CCCC[C@H]12 | > 100 µM
Nc1ccc(C2SCC(=O)N2NS(=O)(=O)c2cccc(C(=O)O)c2)cc1 (configuration not stated) | > 100 µM

Return reported TGI values for all items listed beneath this line.
1. NC(=O)c1csc(-c2ccc(CO)o2)n1
2. O=C1c2ccccc2C(=O)N1NC1=NCCN1
3. Nc1nc(N)c2c(n1)CCC(S(=O)(=O)c1ccc3ccccc3c1)C2 (configuration not stated)
4. COc1cc2c(cc1-c1coc3cc(O)ccc3c1=O)OCO2
5. CCCCCCCCCCCCCCCCCC[S+](C)CC (configuration not stated)

Solution:
["> 100 µM", "> 100 µM", "> 100 µM", "> 100 µM", "2.45 µM"]

---

- Tested on: T-47D breast
- assayInfo: NCI tumour cell line growth inhibition, 48 h
recordedEndpoint: TGI (µM)
Answers are plain numbers, in µM.

For orientation, consider the following solved cases.
mol | TGI (µM)
Nc1c(C(=O)Nc2cccc(C(F)(F)F)c2)sc2nc3c(cc12)CCCCCC3 | 6.2
O=C(O)c1ccc(Nc2cnc3cc(C(F)(F)F)ccc3n2)cc1 | 53.8
O[C@@]12Cc3c([nH]c4ccccc34)[C@@H]3Oc4c(-c5ccccc5)ccc5c4[C@@]31CCN(CC1CC1)[C@@H]2C5 | 4.71

Return reported TGI values for all items listed beneath this line.
1. C#CCn1c(=O)ccn(/C(=C/C(=O)OCC)C(=O)OCC)c1=O
2. C[C@@H](c1ccccc1)N1CO[C@@]2(C#Cc3ccc4c(c3)OCO4)CCC[C@@H]12
3. COc1ncc(-c2ccc3nccc(C#CCCCCC(=O)NO)c3c2)cc1NS(=O)(=O)c1ccc(F)cc1F
4. O=C(CN1CCN(C(=O)c2ccco2)CC1)Nc1ccc(Cl)cc1C(=O)c1ccccc1Cl

Solution:
1. 14.1
2. 34
3. 0.055
4. 15.4

---

- Test system: A498 renal
- assayInfo: NCI tumour cell line growth inhibition, 48 h
recordedEndpoint: GI50

For orientation, consider the following solved cases.
mol | measurement
Cn1c(=O)c(Oc2ccc(F)cc2F)cc2cnc(NCC(C)(C)O)nc21 | > 25000 nM
COC(=O)c1cccc(NC(=O)c2ccc(NC3=C(Cl)C(=O)N(Cc4ccccc4)C3=O)cc2)c1 | 26300 nM
COc1cc(N(CCCl)CCCl)ccc1/C=N\NC(=O)c1cccnc1 | 523 nM
CCCCOC(=O)c1c(C)[nH]c(/C=C2\N=C(c3ccc[nH]3)C=C2OC)c1C | 342 nM

Continue with the next compound.
Exercise: Would you mind telling me what GI50 value was observed for COC(=O)c1c2c(c(C)[n+]([O-])c1C)C(=O)C(NCc1ccc(O)cc1)=CC2=O ?
Solution: 1310 nM

---

- Tested on: SNB-19 CNS
- assayInfo: NCI tumour cell line growth inhibition, 48 h
recordedEndpoint: TGI

For orientation, consider the following solved cases.
compound | TGI
N=c1oc2cc(O)ccc2cc1C(=O)Nc1cccc2ccccc12 | 35.4 µM
O=c1c2cc([N+](=O)[O-])ccc2n2n1CCCCC2 | > 100 µM
Cc1c(Cl)c(C)c(Cl)c(O)c1Cl | > 100 µM
CCOc1ccc2c(c1)C(=O)c1c-2n(CCCN=[N+]=[N-])c(=O)c2cc([N+](=O)[O-])ccc12 | 85.5 µM
COC(=O)Cc1c(C2C(CC(=O)OC)c3ccccc3N2C2OC(CO)C(O)C(O)C2O)[nH]c2ccccc12 (stereo unspecified) | > 100 µM

Continue with the next compound.
Exercise: Would you mind telling me what TGI value was observed for COc1ccc(/C=C/C(=O)/C=C(O)/C=C/c2ccc(OC)c(OC)c2)cc1OC ?
Solution: > 100 µM
